We begin with a simple list: items and their reported melting point.

compound="C=CCC(C(O)=Nc1cc(Cl)cc(Cl)c1)C(C)C(=O)O (stereo not given)" measured_value="131 °C"
compound="COc1ccc(-c2ccc(C(C)O)cc2)cc1 (single isomer, unassigned; (+))" measured_value="132 to 133 °C"
compound=COc1ccc2c(Cl)nc(C(=O)NCCO)c(O)c2c1 measured_value="117 to 119 °C"
compound="CCCCCCC(C(=O)O)n1cnc2c(NC(=O)c3ccccc3-c3nn[nH]n3)cccc21 (stereo not given)" measured_value="130 to 134 °C"
compound=CCNC(=O)Nc1ccc2[nH]cc(C(=O)O)c(=O)c2c1 measured_value="> 320 °C"
compound="OCCC1(S)C2CC3CC(C2)CC1C3 (stereo not given)" measured_value="68 to 70 °C"
compound=Nc1cc(-c2ccco2)ccc1Nc1cccc(-n2ccnc2)c1 measured_value="191 to 194 °C"
compound=COc1cc(C(=O)O)cc2c1oc1ccccc12 measured_value="229 to 240 °C"
compound=O=C1OC2(CCN(C(=O)Nc3cnc(-c4ccc(O)cc4)cn3)CC2)c2ccccc21 measured_value="263 to 265 °C"

--- query ---
QUERY: Which melting point value is on record for `CCCC(=O)Nc1c(Br)cc(C(=O)OCC)cc1CN(CC)CC` ?
RESULT: 134 °C

---

Property Name: melting point

// known answers, use as guide
molecule=COC(=O)c1cc(C(=O)CNC(C)(C)Cc2ccc3c(c2)OCO3)ccc1OCc1ccccc1 measured_value="134 to 141 °C"
molecule="O=C1NC(=O)C(c2ccc(NC(=O)c3ccccc3)cc2)S1 (stereo unspecified)" measured_value="240 to 245 °C"
molecule=CC1=CC(=O)c2nc3n(c2C1=O)CCC3 measured_value="162 to 164 °C"
molecule=CSc1ncc(Cc2ccccn2)c(=O)[nH]1 measured_value="195 to 198 °C"
molecule=Oc1ccccc1-c1cc(-c2ccc(F)c(F)c2)cc(-c2ccc3ccccc3c2)n1 measured_value="165 to 167 °C"
molecule=Cn1nc(N)nc1NCCCOc1cccc(CNCC(F)(F)F)c1 measured_value="62 to 64 °C"
molecule=CC(=O)NCc1nnc(S)s1 measured_value="200 to 203 °C"
molecule=Cn1c(COc2ccc(C=O)cc2)nc2cccnc21 measured_value="124 to 125 °C"

QUERY: Which melting point value is on record for CN1C(=O)N2CCSC2(C)C1=O (stereo unspecified) ?
RESULT: 67 to 68 °C

QUERY: Which melting point value is on record for `CCOC(=O)c1sc2nc(-c3ccccc3)cnc2c1N` ?
RESULT: 173 to 175 °C

QUERY: Which melting point value is on record for `CCOC(=O)Nc1nc(-c2ccccc2)c(-c2nc3ccccc3c(=O)n2-c2ccc(OC)cc2)s1` ?
RESULT: 256 to 257 °C

QUERY: Which melting point value is on record for `CCOC(=O)c1nc(NC)sc1C(=O)CBr` ?
RESULT: 130 to 132 °C

QUERY: Which melting point value is on record for `Nc1cc(C(=O)OCc2ccccc2)ccc1OCc1ccccc1` ?
RESULT: 79 to 81 °C

---

We begin with a simple list: items and their reported melting point.

// known answers, use as guide
molecule=CC(C)CCCc1c(-c2ccc(S(C)(=O)=O)cc2)cnn(-c2ccc(F)c(F)c2)c1=O measured_value="111 to 113 °C"
molecule=CC(C)c1[nH]nc2c1C(=O)c1c(NC(N)=O)cccc1-2 measured_value="> 250 °C"
molecule=CCn1c(C)c(C(C)=O)c(N=Cc2ccccc2)c1-c1ccccc1 measured_value="139 to 141 °C"

QUERY: Which melting point value is on record for CCOC(=O)C1=C(N=CN(C)C)NC(C)=C(C(=O)OC)C1c1ccccc1Cl (stereo unspecified) ?
RESULT: 137 °C

QUERY: Which melting point value is on record for `Cc1ccnc2c1nc(C)n2-c1ccccc1` ?
RESULT: 117 to 119 °C

QUERY: Which melting point value is on record for Cc1cccc2c1N(CC(=O)N1CC3CCC(CC3)C1)C(=O)C(NC(=O)Nc1cccc(-c3nnn[nH]3)c1)N=C2c1ccccc1F (stereo unspecified) ?
RESULT: 210 to 213 °C

QUERY: Which melting point value is on record for `CCOC(=O)c1c(-c2ccccc2)c2cc(Cl)ccc2n(C)c1=O` ?
RESULT: 124 to 125 °C

QUERY: Which melting point value is on record for `Fc1cccc(COc2nnc(-c3ccc4c(c3)CCO4)o2)c1` ?
RESULT: 91 to 92 °C

---

We begin with a simple list: items and their reported melting point.

// known answers, use as guide
compound=COc1ccc(/C=C(\C#N)c2ccccc2Br)cc1OC1CCCC1 measured_value="100 to 103 °C"
compound=CCOC(=O)c1cc(NCc2ccccc2)c(Oc2ccc(OCc3ccccc3)cc2)c(S(N)(=O)=O)c1 measured_value="166 °C"
compound="O=C(Nc1ccc(C2CC(F)(F)C2(F)Cl)cc1)Nc1nonc1-c1ccccc1 (stereo unspecified)" measured_value="201 °C"
compound=CC(=O)Cc1nc(/C=C/c2cccc(Cl)c2F)no1 measured_value="75 to 77 °C"
compound=COC(=O)Cc1ccc(Oc2ccc(C#N)cc2)cc1 measured_value="58 to 60 °C"

QUERY: Which melting point value is on record for CCC1Nc2cc(F)c(F)cc2-n2cccc21 (stereo unspecified) ?
RESULT: 67 to 69 °C

QUERY: Which melting point value is on record for CC(=O)Nc1ccc(C=CC(=O)C(C)CC(=O)O)cc1 (stereo unspecified) ?
RESULT: 189 to 190 °C

---

Property Name: melting point

// known answers, use as guide
compound=O=c1[nH]c(-c2ccc(F)cc2)c(CCCl)s1 measured_value="138 °C"
compound=O=[N+]([O-])CS(=O)(=O)c1ccc(CO)cc1 measured_value="73 to 75 °C"
compound="Cc1nc(N2CCCC(NCc3ccc(C(F)(F)F)cc3)C2=O)sc1C(=O)NCc1ccccc1 (stereo not given)" measured_value="39 to 40 °C"

QUERY: Which melting point value is on record for `CS(=O)(=O)c1ccc(-c2cc(C(F)F)nn2-c2ccc(S(N)(=O)=O)cc2)cc1` ?
RESULT: 209 to 210 °C

QUERY: Which melting point value is on record for CCCC12CCC(=O)C=C1c1c(cc(CC(=O)O)c(Cl)c1Cl)C2 (stereo not given) ?
RESULT: 206 to 208 °C

QUERY: Which melting point value is on record for `COc1ccccc1N1CCN(CCn2c(=O)c3sccc3n(C(C)=O)c2=O)CC1` ?
RESULT: 156 to 158 °C

QUERY: Which melting point value is on record for O=[N+]([O-])c1cnn2c1-c1ccccc1NC2c1ccc(Cl)cc1 (stereo not given) ?
RESULT: 217 to 219 °C

QUERY: Which melting point value is on record for `O=CNNc1ccc(NC(=S)N2CCOCC2)cc1` ?
RESULT: 204 to 206 °C

QUERY: Which melting point value is on record for N#CC1C(=O)Nc2cc(Cl)ccc2C1=O (stereo not given) ?
RESULT: 314 to 316 °C

QUERY: Which melting point value is on record for `Cc1ccc(-c2ccc3c(c2)CC[C@H]2N(C)C(=O)CC[C@]32C)cc1` ?
RESULT: 178 °C

---

We begin with a simple list: items and their reported melting point.

// known answers, use as guide
compound=COc1cccc(-c2nc(N)nc(Nc3cccc(Br)c3)n2)c1 measured_value="142 °C"
compound=CC(=O)c1ccc(=O)[nH]c1C=CN(C)C measured_value="238 to 240 °C"
compound=N#Cc1ccc(Nn2cnnc2)cc1-c1ccco1 measured_value="217 to 218 °C"
compound="Cc1cccc2c1NC(C(Cl)(Cl)Cl)OC2 (stereo unspecified)" measured_value="69 to 70 °C"
compound=COc1cc(C(=O)c2nc3ccccc3[nH]2)cc([N+](=O)[O-])c1OC measured_value="212 to 213 °C"

QUERY: Which melting point value is on record for `COc1ccccc1CN1CCC(CCC(=O)c2ccc(N3CCCC3)cc2)CC1` ?
RESULT: 89 to 91 °C

QUERY: Which melting point value is on record for `CCOC(=O)c1cc(=O)c(O)c(-c2ccc(Cl)cc2)o1` ?
RESULT: 157 to 159 °C

QUERY: Which melting point value is on record for `Nc1nc(Cl)nc2cnc(Oc3ccc(F)cc3F)cc12` ?
RESULT: > 300 °C

QUERY: Which melting point value is on record for `CNC(=O)CCCc1cncc2ccc(OC)cc12` ?
RESULT: 117 to 119 °C

QUERY: Which melting point value is on record for `O=C(O)c1ccc(NC(=O)c2ccc(Br)nc2)nc1` ?
RESULT: 270 to 272 °C

QUERY: Which melting point value is on record for `CN1CCC(c2c3n(c4ccc(O)cc24)CCC3)CC1` ?
RESULT: > 250 °C
